Cited source: ChEMBL document CHEMBL4715728

Experiment: Antioxidant activity in Sprague-Dawley rat Cerebral cortex neuron assessed as total oxidative stress level by measuring H2O2 equivalents at 0.1 uM after 24 hrs (reference value: 2.3 +/- 0.3 umol/L)
Format: functional
measured quantity: Activity

Examples with their reported Activity follow.
>>> result_value("O=C(CCCC[C@@H]1CCSS1)OC1CCN(Cc2ccccc2)CC1")
"0.4 µmol/L"
>>> result_value("O=C(CCCC[C@@H]1CCSS1)N1CCN(Cc2ccccc2)CC1")
"0.5 µmol/L"
>>> result_value("O=C(O)CCCC[C@@H]1CCSS1 [THIOCTIC ACID]")
"0.4 µmol/L"
>>> result_value("COc1ccc(CN2CCN(C(=O)CCCCC3CCSS3)CC2)cc1 (centres undefined)")
"0.4 µmol/L"
>>> result_value("O=C(CCCCC1CCSS1)N1CCN(Cc2ccccc2)CC1 (centres undefined)")
"0.5 µmol/L"

What value of Activity has been reported for the following molecule? COc1ccc(CN2CCC(OC(=O)CCCCC3CCSS3)CC2)cc1 (centres undefined) 0.5 µmol/L

What value of Activity has been reported for the following molecule? O=C(CCCCC1CCSS1)OC1CCN(Cc2ccc(F)cc2)CC1 (centres undefined) 0.4 µmol/L

What value of Activity has been reported for the following molecule? O=C(CCCCC1CCSS1)OC1CCN(Cc2ccccc2)CC1 (centres undefined) 0.5 µmol/L

What value of Activity has been reported for the following molecule? O=C(CCCCC1CCSS1)N1CCN(Cc2ccc(F)cc2)CC1 (centres undefined) 0.4 µmol/L

###

Test: Cytotoxicity against Sprague-Dawley rat Cerebral cortex neuron assessed as cell viability at 10 uM incubated for 24 hrs by MTT assay relative to control
Assay type: tissue-based
Conditions: cerebral cortex neurons, read-out: Activity
Items are presented alongside their recorded viability at 24 h, 10 µM.
The answer is to be given in %; state only the numeric part.

What value of viability at 24 h, 10 µM has been reported for the following molecule? O=C(CCCCC1CCSS1)N1CCN(Cc2ccc(F)cc2)CC1 (stereo not given) 97.2

What value of viability at 24 h, 10 µM has been reported for the following molecule? O=C(CCCCC1CCSS1)N1CCN(Cc2ccccc2)CC1 (stereo not given) 97.5

What value of viability at 24 h, 10 µM has been reported for the following molecule? COc1ccc(CN2CCN(C(=O)CCCCC3CCSS3)CC2)cc1 (stereo not given) 96.1

What value of viability at 24 h, 10 µM has been reported for the following molecule? O=C(O)CCCC[C@@H]1CCSS1 98.1

What value of viability at 24 h, 10 µM has been reported for the following molecule? O=C(CCCCC1CCSS1)OC1CCN(Cc2ccc(F)cc2)CC1 (stereo not given) 96.9

What value of viability at 24 h, 10 µM has been reported for the following molecule? O=C(CCCCC1CCSS1)OC1CCN(Cc2ccccc2)CC1 (stereo not given) 97.8

What value of viability at 24 h, 10 µM has been reported for the following molecule? O=C(CCCC[C@@H]1CCSS1)N1CCN(Cc2ccccc2)CC1 96.5

What value of viability at 24 h, 10 µM has been reported for the following molecule? CO[C@@]12[C@H](COC(N)=O)C3=C(C(=O)C(C)=C(N)C3=O)N1C[C@@H]1N[C@@H]12 46.1

What value of viability at 24 h, 10 µM has been reported for the following molecule? O=C(CCCC[C@@H]1CCSS1)OC1CCN(Cc2ccccc2)CC1 96.4

What value of viability at 24 h, 10 µM has been reported for the following molecule? COc1ccc(CN2CCC(OC(=O)CCCCC3CCSS3)CC2)cc1 (stereo not given) 97.1
